Test system: M. gypseum
Assay: In vitro MIC, progressive double dilutions in liquid medium
Format: cell-based
Parameters: unit not given here
Details: Sabouraud broth with gentamycin
Task for the reader: assign each of the following compounds its reported MIC.

Prompt: Reported MIC for Clc1cc(Cl)c2c(c1)CCc1ccccc1C2n1ccnc1.O=[N+]([O-])O (racemic) : what is it?
Completion: 1,05

Prompt: Field entry: Clc1ccccc1C(c1ccccc1)(c1ccccc1)n1ccnc1
Completion: 0,97

Prompt: Field entry: Clc1cc(Cl)c2c(c1)C=Cc1ccccc1C2n1ccnc1.O=[N+]([O-])O (racemic)
Completion: 0,08

Prompt: Field entry: c1ccc(-c2ccc(C(c3ccccc3)n3ccnc3)cc2)cc1 (stereo not shown)
Completion: 6,25

----------
Task for the reader: assign each of the following compounds its reported MIC.
Test system: Trichoph. mentagrophytes
Assay: In vitro MIC, progressive double dilutions in liquid medium
Assay type: cell-based
Conditions: Sabouraud broth with gentamycin

Prompt: Reported MIC for c1ccc(-c2ccc(C(c3ccccc3)n3ccnc3)cc2)cc1 (stereo not shown) : what is it?
Completion: 1,48

Prompt: Field entry: Clc1ccccc1C(c1ccccc1)(c1ccccc1)n1ccnc1
Completion: 0,23

Prompt: Field entry: Clc1cc(Cl)c2c(c1)CCc1ccccc1C2n1ccnc1.O=[N+]([O-])O (racemic)
Completion: 0,17

Prompt: Field entry: Clc1cc(Cl)c2c(c1)C=Cc1ccccc1C2n1ccnc1.O=[N+]([O-])O (racemic)
Completion: 0,17

----------
Tested on: C. Krusei
Test: In vitro MIC, progressive double dilutions in liquid medium
Assay type: cell-based
Details: Sabouraud broth with gentamycin
Measurement Kind: MIC

Prompt: Notebook entry, C. Krusei assay: MIC of Clc1cc(Cl)c2c(c1)CCc1ccccc1C2n1ccnc1.O=[N+]([O-])O (racemic) = ?
Completion: 3,17

Prompt: Field entry: Clc1ccccc1C(c1ccccc1)(c1ccccc1)n1ccnc1
Completion: 6,18

Prompt: Field entry: Clc1cc(Cl)c2c(c1)C=Cc1ccccc1C2n1ccnc1.O=[N+]([O-])O (racemic)
Completion: 5,61

Prompt: Field entry: c1ccc(-c2ccc(C(c3ccccc3)n3ccnc3)cc2)cc1 (stereo not shown)
Completion: 50,50

----------
Task for the reader: assign each of the following compounds its reported MIC.
Tested on: C. albicans
Assay: In vitro MIC, progressive double dilutions in liquid medium
Format: cell-based
Set-up: unit not given here
Details: Sabouraud broth with gentamycin

Prompt: Reported MIC for c1ccc(-c2ccc(C(c3ccccc3)n3ccnc3)cc2)cc1 (stereo not shown) [Bifonazole] : what is it?
Completion: 12,10

Prompt: Field entry: Clc1cc(Cl)c2c(c1)CCc1ccccc1C2n1ccnc1.O=[N+]([O-])O (racemic) [WAS 2160]
Completion: 2,25

Prompt: Field entry: Clc1ccccc1C(c1ccccc1)(c1ccccc1)n1ccnc1 [Clotrimazole]
Completion: 2,43

Prompt: Field entry: Clc1cc(Cl)c2c(c1)C=Cc1ccccc1C2n1ccnc1.O=[N+]([O-])O (racemic) [WAS 2169]
Completion: 1,98

----------
Tested on: C. tropicalis
Test: In vitro MIC, progressive double dilutions in liquid medium
Assay type: cell-based
Design: unit not given here
Conditions: Sabouraud broth with gentamycin
Task for the reader: assign each of the following compounds its reported MIC.

Prompt: Notebook entry, C. tropicalis assay: MIC of Clc1cc(Cl)c2c(c1)C=Cc1ccccc1C2n1ccnc1.O=[N+]([O-])O (racemic) [WAS 2169] = ?
Completion: 7,58

Prompt: Field entry: c1ccc(-c2ccc(C(c3ccccc3)n3ccnc3)cc2)cc1 (stereo not shown) [Bifonazole]
Completion: 72,67

Prompt: Field entry: Clc1cc(Cl)c2c(c1)CCc1ccccc1C2n1ccnc1.O=[N+]([O-])O (racemic) [WAS 2160]
Completion: 3,44

Prompt: Field entry: Clc1ccccc1C(c1ccccc1)(c1ccccc1)n1ccnc1 [Clotrimazole]
Completion: 3,51
